Entries and their protein stability index values follow.
B1: WDR41 (parent)
chain: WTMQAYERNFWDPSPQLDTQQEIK

Variants of: B1
assayRemarks: protein stability index of a GFP-peptide fusion (GPS, HEK-293T) (PSI 1-6); higher = more stable;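 note: lentivirally expressed fusions sorted by FACS into six bins by GFP to DsRed ratio, PSI derived from sequencing read proportions per bin multiplied by bin number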
conditionSummary: c terminus: a fixed tail appended
endpointLabel: protein stability index

mutantLabel | numericValue
W1K | 4.15
P13T | 1.56
E7M | 1.93
Y6E | 3.19
L17I | 2.25
S14Q | 2.76
T19D | 2.19
W11Y | 3.5
Q20H | 2.86
